Listed here: items and their measured APC median at 3 µg/ml.
Molecular target: T1, Human TMPRSS2 expressed on cells (human, UniProt O15393 1-492)
T1 construct: also called TMPRSS2 expressing cells; Daudi-TMPRSS2 transfectant
T1 sequence (O15393 whole entry): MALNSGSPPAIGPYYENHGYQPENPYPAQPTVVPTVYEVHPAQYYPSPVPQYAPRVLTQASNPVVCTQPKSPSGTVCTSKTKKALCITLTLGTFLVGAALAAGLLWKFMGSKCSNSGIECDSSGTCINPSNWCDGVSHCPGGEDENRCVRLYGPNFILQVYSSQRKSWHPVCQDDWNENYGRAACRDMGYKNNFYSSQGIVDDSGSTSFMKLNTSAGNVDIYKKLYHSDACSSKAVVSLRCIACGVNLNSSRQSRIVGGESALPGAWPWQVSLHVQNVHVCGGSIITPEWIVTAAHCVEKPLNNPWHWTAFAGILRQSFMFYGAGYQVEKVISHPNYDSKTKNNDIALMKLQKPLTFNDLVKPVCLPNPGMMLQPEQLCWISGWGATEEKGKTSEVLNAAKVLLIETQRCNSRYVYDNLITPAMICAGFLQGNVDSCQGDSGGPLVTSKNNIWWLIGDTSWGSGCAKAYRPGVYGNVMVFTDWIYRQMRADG
MEASUREMENT TYPE: APC median at 3 µg/ml

1. 2228_15 human IgG4 chimeric antibody (antibody, V domains shown) VH: QVQLQQSGPELVKPGTSVKISCKASGYTFTDYYINWVKQRPGQGLEWIGWIFPGSGSSYYNAIFKGKATLTVDTSSNTAHMSLSSLTSDDSAVYFCARGDFGNFGGFFTYWGQGTLVTVSA VL: DVVVTQSPASLAVSLGQRATISCRASKSVSTSGYSFMHWYQQKPGQPPKLLIYLASNLESGVPARFSGSGSGTDFILNIHPVEEEDAATYYCQHSRELPLTFGAGTKLELK :: 2370
2. humanized 2228-15 IgG4 (S108P) prototype #4 (antibody, V domains shown, also called humanized #4; hu #4) VH: EIQLVQSGAEVKKPGSSVKVSCKASGYTFTDYYINWMRQAPGQGLEWIGWIFPGSGSSYYNAIFKGRATLTVDTSTNTAYMELSSLRSEDTAFYFCARGDFGNFGGFFTYWGQGTLVTVSS VL: DIVMTQSPDSLAVSLGERATINCRASKSVSTSGYSFMHWYQQKPGQPPKLLIYLASNLESGVPDRFSGSGSGTDFTLTIRPLQAEDVAVYYCQHSRELPLTFGQGTKLEIK :: 1990
3. humanized 752-1 IgG4 (S108P) prototype #1 (antibody, V domains shown, also called humanized #1; hu #1) VH: QVQLVQSGAEVKKPGASVKVSCKASGYTFTSCGISWVRQAPGQGLEWMGEIYPRGGNTYYNEKFKGRVTMTTDTSTSTAYMELRSLRSDDTAVYYCARENGNYDPLFAYWGQGTLVTVSS VL: DIQMTQSPSSLSASVGDRVTITCKASQDINKYIAWYQQKPGKAPKLLIYYTSTLQPGVPSRFSGSGSGTDFTFTISSLQPEDIATYYCLQYYNLWTFGGGTKVEIK :: 1450
